Reported cell viability values are given for each entry in this list.
System: P12-Ichikawa
Test: cell viability relative to DMSO control; higher = less cytotoxic
Settings: RPMI 5 mM glucose + 10% dialyzed FBS; 48 h; 0.0211 µM
ASSAY METRIC: cell viability (%)

1) CC[C@H]1OC(=O)[C@H](C)C(=O)[C@H](C)[C@@H](O[C@H]2O[C@H](C)C[C@H](N(C)C)[C@H]2O)[C@](C)(OC)C[C@@H](C)C(=O)[C@H](C)[C@H]2N(CCCCn3cnc(-c4cccnc4)c3)C(=O)O[C@]12C: 147
2) CCCCCCCCCCCCCC(=O)N[C@H](CO)[C@H](O)c1ccc([N+](=O)[O-])cc1: 94
3) O=C(O)c1cc(/N=N/c2ccc([S+](=O)([O-])Nc3ccccn3)cc2)ccc1O: 102

###

Below: a set of entries, each annotated with reported cell viability.
Tested on: NOMO1
Assay: cell viability relative to DMSO control; higher = less cytotoxic
Conditions: RPMI 5 mM glucose + 10% FBS; 48 h; 0.00234 µM
ASSAY METRIC: cell viability (%)

1. Nc1ccc([S+](=O)([O-])Nc2ccnn2-c2ccccc2)cc1: 98.5
2. C=C[C@H]1CN2CCC1C[C@@H]2C(O)c1ccnc2ccc(OC)cc12 (some centres undefined): 116
3. CC[C@H]1OC(=O)[C@H](C)C(=O)[C@H](C)[C@@H](O[C@H]2O[C@H](C)C[C@H](N(C)C)[C@H]2O)[C@](C)(OC)C[C@@H](C)C(=O)[C@H](C)[C@H]2N(CCCCn3cnc(-c4cccnc4)c3)C(=O)O[C@]12C: 118
4. COc1ccc(C(=O)c2c(C)n(CCN3CCOCC3)c3cc(I)ccc23)cc1: 112
5. CC(C(=O)O)c1ccc2c(c1)CC(=O)c1ccccc1S2 (centres undefined): 115
6. COc1cccc2c1C(=O)c1c(O)c3c(c(O)c1C2=O)C[C@@](O)(C(=O)CO)C[C@@H]3O[C@H]1C[C@H](N)[C@H](O)[C@H](C)O1: 111
7. COC1=C(OCCCN2CCOCC2)C=CC\3=C1/N=C(/NC(=O)C4=CN=C(N)N=C4)N5CC/N=C35: 90.5
8. O=C(O)c1cccnc1Nc1cccc(C(F)(F)F)c1: 116
9. O=C(CCCN1CCN(c2ccc(F)cc2)CC1)NC1c2ccccc2CSc2ccccc21 (centres undefined): 109

###

Measured cell viability of individual entries
Test system: SEM cells
Assay: cell viability relative to DMSO control; higher = less cytotoxic
Details: HPLM + 10% dialyzed FBS; 48 h; 0.0211 µM
ASSAY METRIC: cell viability (%)

1) CC(C)OC(=O)[C@H](C)N[P@](=O)(OC[C@H]1O[C@@H](N2\C=C/C(=O)NC2=O)[C@](C)(F)[C@@H]1O)OC3=CC=CC=C3: 120
2) C=CC(=O)Nc1cc2c(Nc3ccc(F)c(Cl)c3)ncnc2cc1OCCCN1CCOCC1: 128
3) COC1=C(OCCCN2CCOCC2)C=C3N=CC=C(OC4=CC=C(C=C4F)\C5=C\N=C(\NC6=CC=C(F)C=C6)N(C)C5=O)C3=C1: 91.7
4) Cc1ccc([S+](=O)([O-])OCC(=O)Nc2ccc(C(=O)O)c(O)c2)cc1: 118
5) O=C(O)c1cc(/N=N/c2ccc([S+](=O)([O-])Nc3ccccn3)cc2)ccc1O: 76.3
6) O=C(O)c1cccnc1Nc1cccc(C(F)(F)F)c1: 103
7) ClC/1=C(NCCN2CCOCC2)/C(=O)C3=C(C=CC=N3)C1=O: 118
8) CC1=CC(=CC(=C1C\C2=N\CCN2)C)C(C)(C)C: 100
9) Nc1c2c(nc3ccccc13)CCCC2: 109
10) OCC(O)C(O)C(O)CO (stereo not given): 101

###

Test system: NOMO1
Experiment: cell viability relative to DMSO control; higher = less cytotoxic
Conditions: HPLM + 10% dialyzed FBS; 48 h; 15.4 µM
ASSAY METRIC: cell viability (%)

1) CN1CC(=O)N2[C@H](c3ccc4c(c3)OCO4)c3[nH]c4ccccc4c3C[C@@H]2C1=O: 90.7
2) CC(N[C@H]1CCCC[C@@H]1NC(=O)c1ccc(Cl)cc1)c1cccc2ccccc12 (stereo partly drawn): 28
3) CC(C)(O)CC(=O)NCCn1ccc2ncnc(Nc3ccc(Oc4cccc(C(F)(F)F)c4)c(Cl)c3)c21: 54.7
4) Cc1cc2c(C(N)=O)cccc2n1-c1nc2c(c(NCc3ccccc3)n1)COCC2: 3.66
5) CCCCOc1c(C(=O)c2c(F)cc(C)cc2F)cnc2[nH]ncc12: 96.2
6) CC1=CC(=CC(=C1C\C2=N\CCN2)C)C(C)(C)C: 34.2
7) CC#CCn1c(N2CCC[C@@H](N)C2)nc2c1c(=O)n(Cc1nc(C)c3ccccc3n1)c(=O)n2C: 114
8) CC(=O)Oc1ccccc1C(=O)Nc1ncc([N+](=O)[O-])s1: 71.8
9) Cc1ccnc2c1NC(=O)c1cccnc1N2C1CC1: 61.4
10) COC(=O)C\1=C(C)\N\C(=C(/C1C2=CC=CC3=NON=C23)C(=O)OC(C)C)C (stereo not drawn): 96.3
11) COC1=CC=C(C(=C1)OC(C)C)C/2=N/[C@@H]([C@@H](N2C(=O)N3CCNC(=O)C3)C4=CC=C(Cl)C=C4)C5=CC=C(Cl)C=C5: 29.3
12) COc1c(C)c2c(c(O)c1C/C=C(\C)CCC(=O)O)C(=O)OC2: 45.2
13) CCCCCCCCCCCCCC(=O)N[C@H](CO)[C@H](O)c1ccc([N+](=O)[O-])cc1: 3.54

###

System: SEM cells
Test: cell viability relative to DMSO control; higher = less cytotoxic
Conditions: HPLM + 10% dialyzed FBS; 48 h; 0.000781 µM
Each entry below carries its reported cell viability.
ASSAY METRIC: cell viability (%)

1) Cc1cccc(Nc2ccncc2[S+](=O)([O-])NC(=O)NC(C)C)c1: 80.2
2) CNc1nc(Nc2cnn([C@H]3CCN(C4COC4)C[C@@H]3F)c2Cl)ncc1C(F)(F)F: 96
3) CC(C(=O)O)c1ccc2c(c1)CC(=O)c1ccccc1S2 (stereo not given): 99.9
4) CCCNC(=O)Nc1ccc(Oc2ncnc3cc(OC)c(OC)cc23)cc1Cl: 101
5) CC(=O)Oc1ccccc1C(=O)Nc1ncc([N+](=O)[O-])s1: 85.4

###

Catalogue of AUC of viability dose-response curve values
System: P12-Ichikawa
Test: AUC of viability dose-response curve (% viability x log10 dose units); higher = less sensitive
Settings: HPLM + 10% dialyzed FBS; 48 h
ASSAY METRIC: AUC of viability dose-response curve

1) CCOC(=O)\C1=C\[C@]2(CC)CCCN3CCC4=C([C@H]23)[N]1C5=C4C=CC=C5: 469
2) COc1ccc2c(c1)CN(C)CC2c1ccc(Cl)c(Cl)c1 (configuration not stated): 475
3) COc1cc[nH]c2ncc(C(=O)C(=O)N3CCN(C(=O)c4ccccc4)C[C@H]3C)c1-2: 455
4) NC(=O)c1ccc(N(C(N)=O)c2c(F)cccc2F)nc1-c1ccc(F)cc1F: 476
5) COC(=O)C\1=C(C)\N\C(=C(/C1C2=CC=CC3=NON=C23)C(=O)OC(C)C)C (configuration not stated): 455
6) C/C=C/C(=O)N(CC)c1ccccc1C: 458
7) ClC/1=C(NCCN2CCOCC2)/C(=O)C3=C(C=CC=N3)C1=O: 450

###

Test system: SEM cells
Test: cell viability relative to DMSO control; higher = less cytotoxic
Details: RPMI 5 mM glucose + 10% dialyzed FBS; 48 h; 0.000781 µM
ASSAY METRIC: cell viability (%)

1. C[C@@H](CN1CC(=O)NC(=O)C1)N1CC(=O)NC(=O)C1: 75
2. COC(=O)C\1=C(C)\N\C(=C(/C1C2=CC=CC3=NON=C23)C(=O)OC(C)C)C (stereo not drawn): 98.9
3. CC(N[C@H]1CCCC[C@@H]1NC(=O)c1ccc(Cl)cc1)c1cccc2ccccc12 (stereo partly drawn): 120

###

System: P12-Ichikawa
Assay: AUC of viability dose-response curve (% viability x log10 dose units); higher = less sensitive
Details: HPLM + 10% dialyzed FBS; 48 h
Entries and their AUC of viability dose-response curve values follow.
ASSAY METRIC: AUC of viability dose-response curve

1. CC#CCn1c(N2CCC[C@@H](N)C2)nc2c1c(=O)n(Cc1nc(C)c3ccccc3n1)c(=O)n2C: 473
2. Cc1cc2c(C(N)=O)cccc2n1-c1nc2c(c(NCc3ccccc3)n1)COCC2: 330
3. CCCCOCCOc1nc(-c2ccc(C(=O)O)c(F)c2)sc1C: 464
4. c1nc2c(NC3CCCCC3)nc(Nc3ccc(N4CCOCC4)cc3)nc2[nH]1: 377
5. N[C@@H]1CONC1=O: 468
6. C[C@@H]1CCO[C@H]2CN\3/C=C(/C(=O)NCC4=C(F)C=C(F)C=C4)C(=O)\C(=C3C(=O)N12)O: 456
7. O=C(c1ccccc1)c1ccc2n1CCC2C(=O)O (centres undefined): 423
8. CCCCCNC(=O)N1CCC(CN(Cc2ccc(Cl)cc2)Cc2ccc([N+](=O)[O-])s2)C1 (centres undefined): 443
9. COc1c(C)c2c(c(O)c1C/C=C(\C)CCC(=O)O)C(=O)OC2: 426
10. CC(C(=O)O)c1ccc2c(c1)CC(=O)c1ccccc1S2 (centres undefined): 427
11. O=C(O)c1cccnc1Nc1cccc(C(F)(F)F)c1: 451
12. CC12CC3CC(C)(C1)CC(N)(C3)C2: 450
13. NC[C@H]1O[C@H](O[C@@H]2[C@H](O)[C@@H](O[C@H]3O[C@H](CO)[C@@H](O)[C@H](N)[C@H]3O)[C@H](N)C[C@@H]2N)[C@H](O)[C@@H](O)[C@@H]1O: 445
14. CCCNC(=O)Nc1ccc(Oc2ncnc3cc(OC)c(OC)cc23)cc1Cl: 438
15. CC(C)CN(C[C@@H](O)[C@H](Cc1ccccc1)NC(=O)O[C@H]1CCOC1)[S+](=O)([O-])c1ccc(N)cc1: 396
16. O=C(CCCN1CCN(c2ccc(F)cc2)CC1)NC1c2ccccc2CSc2ccccc21 (centres undefined): 455
17. CCCCC(C)(C)[C@H](O)/C=C/[C@H]1[C@H](O)CC(=O)[C@@H]1C/C=C\CCCC(=O)O: 447
18. C[N]1N=C(C)C2=C1OC(=C(/C#N)C2C3=CC=C(C=C3)C(F)(F)F)/N (centres undefined): 457
19. COc1ccc(C(=O)CC2(O)C(=O)Nc3c(Cl)ccc(Cl)c32)cc1 (centres undefined): 388
